Biological target: pre-fibrillized Amylin/IAPP fibrils (Homo sapiens)
Construct: purchased Bachem Inc
Sequence (P10997 34-70 limits assumed): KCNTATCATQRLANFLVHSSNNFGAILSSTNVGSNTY
Assay: Thioflavin T fluorometry, disruption/disassembly of pre-formed Amylin/IAPP fibrils
Type: biochemical
Conditions: Amylin/IAPP:test compound wt/wt ratio 1:1; 3-day incubation at 37° C.
Readout: % Inhibition Amylin/IAPP (result ± S.D.), Thioflavin T fluorometry

Requested field: % Inhibition Amylin/IAPP (result ± S.D.), Thioflavin T fluorometry. Item: O=C(Nc1cccc(O)c1O)c1ccc(O)c(O)c1
99.4 ± 1.69%

Requested field: % Inhibition Amylin/IAPP (result ± S.D.), Thioflavin T fluorometry. Item: Oc1ccc(-c2cc(-c3ccc(O)c(O)c3)[nH]n2)cc1O [Compound 8, 3,5 bis(3,4 Dihydroxyphenyl)Pyrazole]
99.0 ± 1.05%

Requested field: % Inhibition Amylin/IAPP (result ± S.D.), Thioflavin T fluorometry. Item: Oc1ccc(C23CC4CC(C2)CC(c2ccc(O)c(O)c2)(C4)C3)cc1O [Compound 9, 1,3 bis(3,4 dihydroxyphenyl) Adamantane]
97.6 ± 0.31%

Requested field: % Inhibition Amylin/IAPP (result ± S.D.), Thioflavin T fluorometry. Item: CN(C(=O)c1ccc(O)c(O)c1)c1ccc(O)c(O)c1
100.0 ± 0.09%

Requested field: % Inhibition Amylin/IAPP (result ± S.D.), Thioflavin T fluorometry. Item: O=S(=O)(Nc1ccc(O)c(O)c1)c1ccc(O)c(O)c1
99.7 ± 0.38%

Requested field: % Inhibition Amylin/IAPP (result ± S.D.), Thioflavin T fluorometry. Item: Oc1ccc(-c2nnc(-c3ccc(O)c(O)c3)[nH]2)cc1O
99.8 ± 0.31%

Requested field: % Inhibition Amylin/IAPP (result ± S.D.), Thioflavin T fluorometry. Item: O=C(Nc1ccc(O)c(O)c1)c1cccc(O)c1O
98.5 ± 0.26%

Requested field: % Inhibition Amylin/IAPP (result ± S.D.), Thioflavin T fluorometry. Item: Oc1ccc(-c2cnc(-c3ccc(O)c(O)c3)[nH]2)cc1O [Compound 6, 2,4 bis(3,4 dihydroxyphenyl) Imidazole]
100.0 ± 0.26%

Requested field: % Inhibition Amylin/IAPP (result ± S.D.), Thioflavin T fluorometry. Item: O=C(Nc1cccc(O)c1O)c1cccc(O)c1O
99.3 ± 0.6%
